Molecular target: T1, human LAIR1 extracellular domain (ECD) protein with 6 HIS tag at the C-terminus (human, UniProt Q6GTX8 22-165)
T1 construct: Produced recombinantly in HEK293 cells; the whole entry is named here; also called LAIR1 ECD; LAIR1-ECD
T1 chain: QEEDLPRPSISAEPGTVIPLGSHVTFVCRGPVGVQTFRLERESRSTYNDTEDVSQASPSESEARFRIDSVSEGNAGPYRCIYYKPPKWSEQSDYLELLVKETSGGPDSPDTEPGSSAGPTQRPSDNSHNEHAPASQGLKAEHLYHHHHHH
Experiment: ELISA, LAIR1 ECD coated, mAb titrated, anti-rabbit HRP
Would you kindly list EC50 for each of these binders?
One number for each entry, in nM.

Lab note: each binder below needs its EC50 filled in.
1. LA-61 (antibody, V domains shown, Rabbit monoclonal IgG; also called mAb LA-61) VH: EQLMEESGGRLVTPGTPLTLTCTASGFDVNAYHMGWVRQAPGKGLEWIGYIYSGGTIFYANWAKGRFTLSRTSTTVDLKITSPTTEDTATYFCARGGYDNYNILYDLWGPGTLVTISS VL: ELDMTQTPASVSEPVGGTVTIKCQASQSISVYLAWYQQKPGQPPKLLIYDASTLTSGVPSRFKGSGSGTEFTLTISDLECADAAAYYCQSYDGTPTAAFGGGTEVVVK
2. LA-35 (antibody, V domains shown, Rabbit monoclonal IgG; also called mAb LA-35) VH: EQSVKESGGRLVTPGTPLTLTCTVSGIDLSYYSMGWFRQAPGKGLEWIGVISSSDSTYYANWAKGRFTISKTSTTVDLKIAGPTTEDTATYFCARVLANSYNAFNLWGPGSLVTISS VL: ELDLTQTPASVSEPVGGTVTIKCQASQSVGSRLAWYQQKPGQPPKLLIYKASTLASGVPSRFKGSGSGTQFTLTMSDLECADAATYYCQCTNISSAYLGAFGGGTEVEIK

Completion:
0.05
0.08
